- Tested on: Pennsylvania Smartweed
- method-description: post-emergence herbicidal activity, greenhouse
- Format: in vivo
- test-settings: Table II; 2 WAT; 5.6 kg/h; formulated in anhydrous tetrahydrofuran
assay-endpoint: Plant Response Index (F)

CCCCOC(=O)CNCP(=O)(O)O[Si](C)(C)C(C)(C)C	1 (25-49% inhibition)
CCOC(=O)CNCP(=O)(O)O[Si](c1ccccc1)(c1ccccc1)C(C)(C)C	1 (25-49% inhibition)
CCCCOC(=O)CNCP(=O)(O)O[Si](c1ccccc1)(c1ccccc1)C(C)(C)C	0 (0-24% inhibition)

Documented Plant Response Index (F) of CC(C)(C)[Si](OP(=O)(O)CNCC(=O)O)(c1ccccc1)c1ccccc1 : 0 (0-24% inhibition)
